Reference for the values: patent US11458114B2

Tested on: wounds
Assay: Various drugs administered on wounds with or without sodium pyruvate or SRF: erythema rating and days to total re-epithelization
Conditions: Rating 1-10, 1 most erythema, 10 no erythema
Can you tell me Drugs in commercial formula with SRF erythema for the items I'm about to list?

Provide only the value of recorded Drugs in commercial formula with SRF erythema for Clc1ccc(COC(Cn2ccnc2)c2ccc(Cl)cc2Cl)cc1 (stereo not drawn) [econazole]
6

Provide only the value of recorded Drugs in commercial formula with SRF erythema for Clc1ccc(CSC(Cn2ccnc2)c2ccc(Cl)cc2Cl)cc1 (stereo not drawn) [sulconazole]
8

Provide only the value of recorded Drugs in commercial formula with SRF erythema for CC(=O)OCC(CCn1cnc2cnc(N)nc21)COC(C)=O [Famciclovir]
7

Provide only the value of recorded Drugs in commercial formula with SRF erythema for Nc1nc2c(ncn2CCC(CO)CO)c(=O)[nH]1 [Penciclovir]
8

Provide only the value of recorded Drugs in commercial formula with SRF erythema for Clc1ccc(CO/N=C(\Cn2ccnc2)c2ccc(Cl)cc2Cl)c(Cl)c1 [oxiconazole]
9

Provide only the value of recorded Drugs in commercial formula with SRF erythema for C[C@@H]1[C@H](O)[C@@H](C)/C=C/C=C/CC/C=C/C=C/C=C/C=C/C(O[C@H]2O[C@H](C)[C@@H](O)[C@H](N)[C@@H]2O)CC2O[C@](O)(CC(O)C(O)CCC(O)CC(O)CC(O)CC(=O)O[C@H]1C)CC(O)C2C(=O)O (stereo partly drawn) [nystatin]
8

Provide only the value of recorded Drugs in commercial formula with SRF erythema for CC1=C(/C=C/C(C)=C/C=C/C(C)=C/CO)C(C)(C)CCC1 [Retinol]
7

Provide only the value of recorded Drugs in commercial formula with SRF erythema for CC(C)[C@H](N)C(=O)OCCOCn1cnc2c(=O)[nH]c(N)nc21 [valaciclovir]
8

Provide only the value of recorded Drugs in commercial formula with SRF erythema for CN(Cc1ccc(C(C)(C)C)cc1)Cc1cccc2ccccc12 [butenafine]
5

###

Tested on: wounds
Assay: Various drugs administered on wounds with or without sodium pyruvate or SRF: erythema rating and days to total re-epithelization
Details: Rating 1-10, 1 most erythema, 10 no erythema; drug alone
Can you tell me Drugs in commercial formula erythema for the items I'm about to list?

Write down measured Drugs in commercial formula erythema (wounds) for this compound. CN(C/C=C/c1ccccc1)Cc1cccc2ccccc12 [naftifine]
3

Write down measured Drugs in commercial formula erythema (wounds) for this compound. Cc1cccc(N(C)C(=S)Oc2ccc3ccccc3c2)c1 [tolnaftate]
7

Write down measured Drugs in commercial formula erythema (wounds) for this compound. Clc1ccc(CO/N=C(\Cn2ccnc2)c2ccc(Cl)cc2Cl)c(Cl)c1 [oxiconazole]
6

Write down measured Drugs in commercial formula erythema (wounds) for this compound. Clc1ccc(CSC(Cn2ccnc2)c2ccc(Cl)cc2Cl)cc1 (stereo not drawn) [sulconazole]
4

Write down measured Drugs in commercial formula erythema (wounds) for this compound. CC(=O)N1CCN(c2ccc(OCC3COC(Cn4ccnc4)(c4ccc(Cl)cc4Cl)O3)cc2)CC1 (stereo not drawn) [ketoconazole]
3

Write down measured Drugs in commercial formula erythema (wounds) for this compound. CN(Cc1ccc(C(C)(C)C)cc1)Cc1cccc2ccccc12 [butenafine]
3

Write down measured Drugs in commercial formula erythema (wounds) for this compound. CC[C@H]1OC(=O)[C@H](C)[C@@H](O[C@H]2C[C@@](C)(OC)[C@@H](O)[C@H](C)O2)[C@H](C)[C@@H](O[C@@H]2O[C@H](C)C[C@H](N(C)C)[C@H]2O)[C@](C)(O)C[C@@H](C)C(=O)[C@H](C)[C@@H](O)[C@]1(C)O [erythromycin]
6

Write down measured Drugs in commercial formula erythema (wounds) for this compound. NCc1ccc(S(N)(=O)=O)cc1 [mafenide]
8

Write down measured Drugs in commercial formula erythema (wounds) for this compound. C/C(=C\C(=O)OCCCCCCCCC(=O)O)C[C@@H]1OC[C@H](C[C@@H]2O[C@H]2[C@@H](C)[C@H](C)O)[C@@H](O)[C@H]1O [Mupirocin]
4

###

Tested on: wounds
Assay: Various drugs administered on wounds with or without sodium pyruvate or SRF: erythema rating and days to total re-epithelization
Settings: Rating 1-10, 1 most erythema, 10 no erythema
MEASURED METRIC: Drugs in commercial formula with SRF erythema
Could you keep your reply to the number by itself?

Provide only the value of recorded Drugs in commercial formula with SRF erythema for Nc1nc2c(ncn2COCCO)c(=O)[nH]1
7

Provide only the value of recorded Drugs in commercial formula with SRF erythema for CC[C@H]1OC(=O)[C@H](C)[C@@H](O[C@H]2C[C@@](C)(OC)[C@@H](O)[C@H](C)O2)[C@H](C)[C@@H](O[C@@H]2O[C@H](C)C[C@H](N(C)C)[C@H]2O)[C@](C)(O)C[C@@H](C)C(=O)[C@H](C)[C@@H](O)[C@]1(C)O
8

Provide only the value of recorded Drugs in commercial formula with SRF erythema for CN(C/C=C/c1ccccc1)Cc1cccc2ccccc12
7

Provide only the value of recorded Drugs in commercial formula with SRF erythema for CC(=O)N1CCN(c2ccc(OCC3COC(Cn4ccnc4)(c4ccc(Cl)cc4Cl)O3)cc2)CC1 (centres unmarked)
8

Provide only the value of recorded Drugs in commercial formula with SRF erythema for NCc1ccc(S(N)(=O)=O)cc1 [mafenide]
7

Provide only the value of recorded Drugs in commercial formula with SRF erythema for Cc1cc(C2CCCCC2)n(O)c(=O)c1
9

Provide only the value of recorded Drugs in commercial formula with SRF erythema for Cc1cccc(N(C)C(=S)Oc2ccc3ccccc3c2)c1 [tolnaftate]
7

Provide only the value of recorded Drugs in commercial formula with SRF erythema for C/C(=C\C(=O)OCCCCCCCCC(=O)O)C[C@@H]1OC[C@H](C[C@@H]2O[C@H]2[C@@H](C)[C@H](C)O)[C@@H](O)[C@H]1O
8

###

System: wounds
Experiment: Various drugs administered on wounds with or without sodium pyruvate or SRF: erythema rating and days to total re-epithelization
Settings: Rating 1-10, 1 most erythema, 10 no erythema; drug alone
Hi! Could you tag entries with Drugs in commercial formula erythema below 4 as y, and those at or above as n? Much appreciated.

State whether 4 exceeds Drugs in commercial formula erythema recorded for C[C@@H]1[C@H](O)[C@@H](C)/C=C/C=C/CC/C=C/C=C/C=C/C=C/C(O[C@H]2O[C@H](C)[C@@H](O)[C@H](N)[C@@H]2O)CC2O[C@](O)(CC(O)C(O)CCC(O)CC(O)CC(O)CC(=O)O[C@H]1C)CC(O)C2C(=O)O (some centres unmarked) [nystatin] .
y

State whether 4 exceeds Drugs in commercial formula erythema recorded for Nc1nc2c(ncn2CCC(CO)CO)c(=O)[nH]1 [Penciclovir] .
n

State whether 4 exceeds Drugs in commercial formula erythema recorded for CC(=O)OCC(CCn1cnc2cnc(N)nc21)COC(C)=O [Famciclovir] .
n

State whether 4 exceeds Drugs in commercial formula erythema recorded for Clc1ccc(COC(Cn2ccnc2)c2ccc(Cl)cc2Cl)cc1 (centres unmarked) [econazole] .
n

State whether 4 exceeds Drugs in commercial formula erythema recorded for CC(C)[C@H](N)C(=O)OCCOCn1cnc2c(=O)[nH]c(N)nc21 [valaciclovir] .
n

State whether 4 exceeds Drugs in commercial formula erythema recorded for CC1=C(/C=C/C(C)=C/C=C/C(C)=C/CO)C(C)(C)CCC1 [Retinol] .
y

###

System: wounds
Assay: Various drugs administered on wounds with or without sodium pyruvate or SRF: erythema rating and days to total re-epithelization
Conditions: Rating 1-10, 1 most erythema, 10 no erythema
MEASURED METRIC: Drugs in commercial formula with sodium pyruvate only erythema
Could you keep your reply to the number by itself?

Provide only the value of recorded Drugs in commercial formula with sodium pyruvate only erythema for C[C@@H]1[C@H](O)[C@@H](C)/C=C/C=C/CC/C=C/C=C/C=C/C=C/C(O[C@H]2O[C@H](C)[C@@H](O)[C@H](N)[C@@H]2O)CC2O[C@](O)(CC(O)C(O)CCC(O)CC(O)CC(O)CC(=O)O[C@H]1C)CC(O)C2C(=O)O (some centres unmarked)
6

Provide only the value of recorded Drugs in commercial formula with sodium pyruvate only erythema for Clc1ccc(CO/N=C(\Cn2ccnc2)c2ccc(Cl)cc2Cl)c(Cl)c1
7

Provide only the value of recorded Drugs in commercial formula with sodium pyruvate only erythema for C/C(=C\C(=O)OCCCCCCCCC(=O)O)C[C@@H]1OC[C@H](C[C@@H]2O[C@H]2[C@@H](C)[C@H](C)O)[C@@H](O)[C@H]1O
6

Provide only the value of recorded Drugs in commercial formula with sodium pyruvate only erythema for Cc1cc(C2CCCCC2)n(O)c(=O)c1
5

Provide only the value of recorded Drugs in commercial formula with sodium pyruvate only erythema for CC[C@H]1OC(=O)[C@H](C)[C@@H](O[C@H]2C[C@@](C)(OC)[C@@H](O)[C@H](C)O2)[C@H](C)[C@@H](O[C@@H]2O[C@H](C)C[C@H](N(C)C)[C@H]2O)[C@](C)(O)C[C@@H](C)C(=O)[C@H](C)[C@@H](O)[C@]1(C)O
5

Provide only the value of recorded Drugs in commercial formula with sodium pyruvate only erythema for Clc1ccc(CSC(Cn2ccnc2)c2ccc(Cl)cc2Cl)cc1 (centres unmarked)
6

Provide only the value of recorded Drugs in commercial formula with sodium pyruvate only erythema for NCc1ccc(S(N)(=O)=O)cc1 [mafenide]
8

Provide only the value of recorded Drugs in commercial formula with sodium pyruvate only erythema for CN(Cc1ccc(C(C)(C)C)cc1)Cc1cccc2ccccc12
4

Provide only the value of recorded Drugs in commercial formula with sodium pyruvate only erythema for Cc1cccc(N(C)C(=S)Oc2ccc3ccccc3c2)c1 [tolnaftate]
7

Provide only the value of recorded Drugs in commercial formula with sodium pyruvate only erythema for CC(=O)OCC(CCn1cnc2cnc(N)nc21)COC(C)=O
6

Provide only the value of recorded Drugs in commercial formula with sodium pyruvate only erythema for Clc1ccc(COC(Cn2ccnc2)c2ccc(Cl)cc2Cl)cc1 (centres unmarked)
6

Provide only the value of recorded Drugs in commercial formula with sodium pyruvate only erythema for CC(C)[C@H](N)C(=O)OCCOCn1cnc2c(=O)[nH]c(N)nc21
8

Provide only the value of recorded Drugs in commercial formula with sodium pyruvate only erythema for CC1=C(/C=C/C(C)=C/C=C/C(C)=C/CO)C(C)(C)CCC1
3

Provide only the value of recorded Drugs in commercial formula with sodium pyruvate only erythema for Nc1nc2c(ncn2CCC(CO)CO)c(=O)[nH]1
7

Provide only the value of recorded Drugs in commercial formula with sodium pyruvate only erythema for CN(C/C=C/c1ccccc1)Cc1cccc2ccccc12
6

Provide only the value of recorded Drugs in commercial formula with sodium pyruvate only erythema for Nc1nc2c(ncn2COCCO)c(=O)[nH]1
5

Provide only the value of recorded Drugs in commercial formula with sodium pyruvate only erythema for CC(=O)N1CCN(c2ccc(OCC3COC(Cn4ccnc4)(c4ccc(Cl)cc4Cl)O3)cc2)CC1 (centres unmarked)
6
